Taken from patent US11603368B2.

- Test system: H1N1 (influenza A/New Caledonia/20/99)
- assay_summary: Antiviral effect on A549 cells infected with H1N1
- Assay type: cell-based, H1N1 A/New Caledonia/20/99 virus
- test_context: Influenza A virus, H1N1, A549, 48 h, Human A549 cells, MOI of 0.1, 48 h post-infection, MUNANA hydrolysis readout
pIC50: −log10 of the molar value.
Tick Fulfilled if pIC50 is 6 or greater. Tick Not fulfilled if pIC50 is less than 6.

Below are worked cases with known answers.
O=C(Nc1sc2c(c1C(=O)O)CCN(c1ccc(F)cc1F)C2)c1ccccc1 | Fulfilled
Cc1ccccc1C(=O)Nc1sc2c(c1C(=O)O)CCN(C(=O)OC(C)(C)C)C2 | Not fulfilled
COC1CN(c2ccc(C(=O)Nc3sc4c(c3C(=O)O)CC(C)(C)OC4(C)C)cc2)C1 | Fulfilled
COc1ccc(C(=O)Nc2sc3c(c2C(=O)O)CCC(C(C)(C)C)C3)cc1OC (stereo not shown) | Fulfilled
COc1ccc(C(=O)Nc2sc3c(c2C(=O)O)CCC(C(C)(C)C)C3)cc1 (stereo not shown) | Fulfilled

Ask: Has COc1ccc(C(=O)Nc2sc3c(c2C(=O)O)CCC(C(C)(C)C)C3)c(F)c1F (stereo not shown) a recorded pIC50 greater than or equal to 6?
Result: Fulfilled

Ask: Has O=C(Nc1sc2c(c1C(=O)O)CCCC2)c1ccccc1 a recorded pIC50 greater than or equal to 6?
Result: Fulfilled

Ask: Has Cc1cc(F)ccc1N1CCc2c(sc(NC(=O)c3ccccc3)c2C(=O)O)C1 a recorded pIC50 greater than or equal to 6?
Result: Fulfilled

----------
- study_target: CISD3 Gene Product (Miner2) (Homo sapiens)
- Sequence (P0C7P0 15-127): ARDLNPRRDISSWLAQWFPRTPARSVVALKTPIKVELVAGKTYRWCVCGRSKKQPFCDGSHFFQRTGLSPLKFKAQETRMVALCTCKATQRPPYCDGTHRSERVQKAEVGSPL
- assay_summary: Stability of Fe—S cluster binding of purified NEET protein Miner2
- Type: biochemical
- test_context: time to 50% Fe—S cluster bound loss changed by more than 25% vs Control sample, at the concentrations tested
measurement_name: stabiliser or destabiliser of Fe—S cluster binding, CISD3 Gene Product (Miner2)

Example molecules with recorded stabiliser or destabiliser of Fe—S cluster binding, CISD3 Gene Product (Miner2):
O=C(Nc1sc2c(c1C(=O)O)C(c1ccccc1)CCC2)c1ccccc1 (stereo not drawn) | Stabilisers
CC(C)(C)C1CCc2c(sc(NC(=O)c3ccc(Cl)cc3)c2C(=O)O)C1 (stereo not drawn) | Stabilisers
Cc1ccccc1C(=O)Nc1sc2c(c1C(=O)O)CCC(C(C)(C)C)C2 (stereo not drawn) | Stabilisers
O=C(Nc1sc2c(c1C(=O)O)CCN(c1ccccc1)C2)c1ccccc1 | Stabilisers
COc1ccc(C(=O)Nc2sc3c(c2C(=O)O)CCN(c2ccc(F)cc2C)C3)cc1OC | Stabilisers

Let us move to another entry and its stabiliser or destabiliser of Fe—S cluster binding, CISD3 Gene Product (Miner2).
Ask: I have this molecule here, CC(C)(C)C1CCc2c(sc(NC(=O)c3ccccc3Cl)c2C(=O)O)C1 (stereo not drawn) , and I need its recorded stabiliser or destabiliser of Fe—S cluster binding, CISD3 Gene Product (Miner2).
Result: Stabilisers
